tested on: ULK1; settings: concentration: 1 μM, replicates: in singlicate; n = 1;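 note: KINOMEscan kinase panel screen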
# %Inh >= 20% gives t, anything below gives f

| chem_smiles | class_name |
| --- | --- |
| Cc1cccc(-c2cc(-c3c[nH]nc3-c3ccccn3)ccn2)c1 | f |
| Nc1nc(N)c2nc(-c3ccccc3)[nH]c2n1 | f |
| CN1C(=O)C(Nc2cc(Cl)c(O)c(Cl)c2)=C(c2ccc(Cl)cc2)C1=O | f |
| COc1ccc(-c2cc3c(C)nc(N)nc3n([C@H]3CC[C@H](O)CC3)c2=O)cn1 | f |
| CCn1c(-c2nonc2N)nc2ccccc21 | t |
| Nc1n[nH]c2nnc(-c3ccccc3)c(-c3ccccc3)c12 | t |
| COc1cccc(-n2cnc3c(N)ncnc32)c1 | t |
| Nc1nccc2scc(-c3ccc4c(c3)CCN4C(=O)Cc3ccccc3)c12 | f |
| COc1cc2ncn(-c3cc(OCc4ccncc4)c(C(N)=O)s3)c2cc1OC | f |
| O=C(Nc1n[nH]c2nc(-c3ccccc3)c(Br)cc12)C1CC1 | t |

---

tested on: MYLK4; conditions: concentration: 1 μM, replicates: in singlicate; n = 1
# reported %Inh; entries follow

| chem_smiles | %Inh (%) |
| --- | --- |
| CC(C)(C)c1ccc(C(=O)Nc2cn3cc(-c4ccccc4)ccc3n2)cc1 | 0 |
| CCS(=O)(=O)c1ccc(OC)c(Nc2ncc(-c3ccc(F)cc3)o2)c1.Cl | 0 |
| FC(F)(F)c1ccc(-c2ncn(CCCN3CCOCC3)c2-c2ccncc2)cc1 | 4 |
| O=C(NCc1cccs1)c1cc(C(=O)c2c(Cl)cccc2Cl)c[nH]1 | 4 |
| O=C(NCCNc1ccnc(Nc2ccc(F)cc2)n1)Nc1ccc2c(c1)OCO2 | 9 |
| CCC(=O)c1c(-c2ccccc2)c2cc(Cl)ccc2c(=O)n1Cc1cc(C(=O)NC2CC2)n(C)n1 | 0 |
| Cc1cc(Nc2nc(-c3cccc(C)n3)nc3ccccc23)ccn1 | 26 |
| COc1cccc(C2=C(Nc3cccc(C(=O)O)c3)C(=O)NC2=O)c1 | 0 |
| COc1cc(OC)cc(-c2cc3cnc(N)nc3nc2NC(=O)NC(C)(C)C)c1 | 11 |

---

# reported %Inh; entries follow
system: MST2; construct: gene STK3; conditions: concentration: 1 μM, replicates: in singlicate; n = 1

| compound | target_system | %Inh, % |
| --- | --- | --- |
| O=c1cc(N2CCOCC2)nc2n(Cc3ccc(F)c(Cl)c3)ccn12 [GSK2297099] | MST2 | 16 |
| COc1ccc(CNC(=O)NC2CCN(c3ccnc(Nc4ccc(F)cc4)n3)C2)cc1 (stereo not drawn) [GSK1379706] | MST2 | 9 |
| Cc1nn2c(=O)cc(N3CCOCC3)nc2n1Cc1cccc(Cl)c1Cl [GSK2342769] | MST2 | 4 |
| Nc1nc(-c2ccccc2F)c(-c2ccnc3ccccc23)s1 [GW560459] | MST2 | 0 |
| CCc1nc(-c2cccc(C)c2)c(-c2ccncc2)s1 | MST2 | 8 |
| Cc1cccc(-c2cc(-c3c[nH]nc3-c3ccccn3)ccn2)c1 [GW679395] | MST2 | 0 |
| Cc1nnc(-c2ccc(C)c(-c3ccc(C(=O)O)cc3)c2)o1 [GW608005] | MST2 | 0 |
| Cc1ccc(-c2ccc3c(ccc4sc5c(c43)NC[C@@H](C)N=C5N(C)C)n2)cn1 | MST2 | 0 |
| O=C(NCCNc1ccnc(Nc2ccc(F)cc2)n1)Nc1ccc2c(c1)OCO2 [GSK1379882] | MST2 | 22 |

---

test system: DYRK1B; conditions: concentration: 1 μM, replicates: in singlicate; n = 1

| compound | unit_of_measure | %Inh |
| --- | --- | --- |
| CCCC(=O)Nc1n[nH]c2ncc(-c3cccc4ccccc34)cc12 | % | 0 |
| Cc1cccc(-c2nc(Nc3ccc4c(cnn4C)c3)c3ccccc3n2)n1 | % | 20 |
| Nc1nc(N)c2nc(-c3ccccc3)[nH]c2n1 | % | 13 |
| COc1cc2ncn(-c3cc(OCc4ccncc4)c(C(N)=O)s3)c2cc1OC | % | 19 |
| COC(=O)c1c(-c2ccccc2)c2cc(C)ccc2c(=O)n1Cc1ccccc1 | % | 6 |
| COc1ccc(-c2coc3ccc(-c4nnc(SCc5cccc(C#N)c5)o4)cc23)cc1 | % | 0 |
| Cc1nnc(-c2ccc3ncn(-c4ccc(S(C)=O)cc4)c3c2)o1 (centres unmarked) | % | 26 |
| Cc1ccccc1COc1cc(-n2cnc3cc(Cl)ccc32)sc1C(N)=O | % | 34 |
| Nc1n[nH]c2ncc(-c3ccccc3)cc12 | % | 0 |
| COc1ccc(Nc2nccc(N3CCC(NS(=O)(=O)c4ccc(NC(C)=O)cc4)C3)n2)cc1 (centres unmarked) | % | 3 |
| COC(=O)c1c(-c2ccccc2)c2cc(Br)ccc2c(=O)n1Cc1ccc(NC(=O)CCC(=O)O)cc1 | % | 48 |

---

test system: TNK1; conditions: concentration: 1 μM, replicates: in singlicate; n = 1
# reported %Inh; entries follow

| compound | %Inh / % |
| --- | --- |
| COc1ccc(Nc2nccc(N3CCC(NS(=O)(=O)c4ccc(NC(C)=O)cc4)C3)n2)cc1 (stereo not drawn) | 18 |
| O=c1cc(N2CCOCC2)nc2n(Cc3ccc(F)c(Cl)c3)ccn12 | 0 |
| Cc1ccc(-c2ccc3c(ccc4sc5c(c43)NC[C@@H](C)N=C5N(C)C)n2)cn1 | 34 |
| CCS(=O)(=O)c1ccc(OC)c(Nc2ncc(-c3ccc(F)cc3)o2)c1.Cl | 0 |
| Cl.NS(=O)(=O)c1cccc(Nc2cc(-c3ccc(F)cc3)n[nH]2)c1 | 0 |
| Nc1ncnc2c1ncn2-c1cccc(F)c1 | 23 |
| COc1cccc(C2=C(N(C)c3ccccc3)C(=O)NC2=O)c1 | 0 |
| CC(C)(C)c1ccc(C(=O)Nc2cn3cc(-c4ccccc4)ccc3n2)cc1 | 0 |
| CCn1c(-c2ccoc2)nc2cnccc21 | 0 |
| CCC(=O)c1c(-c2ccccc2)c2cc(Cl)ccc2c(=O)n1Cc1cc(S(C)(=O)=O)n(CCC(C)(C)O)n1 | 28 |
| COc1cc2ncn(-c3cc(OCc4ccncc4Br)c(C(N)=O)s3)c2cc1OC | 33 |
| COc1ccc(-c2cc3c(C)nc(N)nc3n([C@H]3CC[C@H](OCCO)CC3)c2=O)cn1 | 34 |
| O=C(Nc1n[nH]c2nc(-c3ccccc3)c(Cl)cc12)C1CC1 | 0 |
| CCC(=O)c1c(-c2ccccc2)c2cc(Cl)ccc2c(=O)n1Cc1cc(S(C)(=O)=O)n(CC(F)F)n1 | 0 |
| OCCCNc1nccc(-c2c(-c3cccc(C(F)(F)F)c3)nn3cc(C(F)(F)F)ccc23)n1 | 0 |
| Nc1n[nH]c2ncc(-c3ccccc3)cc12 | 0 |
| COC(=O)c1c(-c2ccccc2)c2cc(Br)ccc2c(=O)n1Cc1ccc(S(C)(=O)=O)cc1 | 0 |
| CCC(=O)c1c(-c2ccccc2)c2cc(Cl)ccc2c(=O)n1Cc1ccc(C(=O)O)cc1 | 0 |

---

test system: AXL; conditions: concentration: 1 μM, replicates: in singlicate; n = 1
Label key: y means %Inh under 9%; n means %Inh of 9% or more.

| compound | class_name |
| --- | --- |
| COc1cc(Nc2nccc(N3CCC(NC(=O)C(C)c4ccc(Cl)cc4)C3)n2)cc(OC)c1OC (stereo not drawn) | n |
| Cc1cccc(-c2nc(Nc3ccc4c(cnn4C)c3)c3ccccc3n2)n1 | n |
| COc1cc2ncn(-c3cc(OCCCc4ccccc4)c(C(N)=O)s3)c2cc1OC | n |
| Cc1c(Cn2c(C)nn3c(=O)cc(N4CCO[C@H](C)C4)nc23)cccc1C(F)(F)F | y |
| COc1ccc(CNC(=O)NC2CCN(c3ccnc(Nc4ccc(F)cc4)n3)C2)cc1 (stereo not drawn) | n |

---

# reported %Inh; entries follow
test system: PAK2; details: concentration: 1 μM, replicates: in singlicate; n = 1
measurement_kind: %Inh (%)

| chem_smiles | recorded_number |
| --- | --- |
| Cc1ccc(-c2ccc3c(ccc4sc5c(c43)NC[C@@H](C)N=C5N(C)C)n2)cn1 | 0 |
| COc1cc(Nc2ccnc3ccc(C(F)(F)F)cc23)cc(OC)c1OC | 0 |
| COc1cc2ncn(-c3cc(OCc4ccc(S(C)(=O)=O)cc4)c(C(N)=O)s3)c2cc1OC | 0 |
| O=C1NC(=O)C(c2ccccc2)=C1Nc1cccc(O)c1 | 16 |
| COc1ccc(-c2coc3ccc(-c4nnc(SCc5cccc(C#N)c5)o4)cc23)cc1 | 34 |
| O=C(NCc1cccs1)c1cc(C(=O)c2c(Cl)cccc2Cl)c[nH]1 | 38 |
| COc1cc2ncn(-c3cc(OCCCc4ccccc4)c(C(N)=O)s3)c2cc1OC | 26 |
| Cc1cccc(-c2cc(-c3c[nH]nc3-c3ccccn3)ccn2)c1 | 22 |
| Nc1n[nH]c2nnc(-c3ccccc3)c(-c3ccccc3)c12 | 0 |
